B1: HDV Ribozyme (parent)
chain: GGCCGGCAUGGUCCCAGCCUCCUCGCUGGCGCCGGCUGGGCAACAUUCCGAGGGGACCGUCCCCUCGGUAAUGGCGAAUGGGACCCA

# Variants of: B1
# PROTOCOL_SUMMARY: self-cleavage, relative activity (ratio to wild type); higher = more cleavage; co-transcriptional
MEASURE: self-cleavage
I only need the number, thanks.

// solved cases for self-cleavage follow
VARIANT_DESIGNATION | self-cleavage
U20G C32U | 0.0519
C36G G76C | 0.0692
G34U U72C | 0.164

## Input Param item = C41A C75G ; retrieve measured self-cleavage.
## Output 0.0773

## Input Suppose we examine the variant C18U C66A ; what self-cleavage value has been reported?
## Output 0.407
